Every entry's value here was drawn from ChEMBL document CHEMBL6092130.

Test: Cytotoxicity against human PBMC cells assessed as reduction in cell viability by CellTiter Glo assay
Format: functional, cell-based
reported property: IC50 (µM)
Give the number; µM is assumed, so skip it.

// query Give reported IC50 value for `C=C1C(=O)[C@]23[C@H](O)[C@H]1CC[C@H]2[C@@]12CO[C@]3(O)[C@@H](O)[C@@H]1C(C)(C)CC[C@@H]2O`
// result 5.18
